# Tested on: HT-29
# method-summary: cells
# Design: species or system panel of human cancer cell lines; Eurofins OncoPanel proliferation; nuclei count by high-content fluorescence imaging, 10-point dose response
# test-settings: Homo sapiens, HT-29, 72 h; cell count, curve inflection point, 3 days
pEC50: −log10 of the molar value.
endpoint-label: pEC50

## Input What value of measured pEC50 is listed for C[C@@H]1CC(=O)NN=C1c1ccc(NN=C(C#N)C#N)cc1 ?
## Output < 4.00

----------
# System: TF-1
# method-summary: cells
# Design: species or system panel of human cancer cell lines; Eurofins OncoPanel proliferation; nuclei count by high-content fluorescence imaging, 10-point dose response
# test-settings: Homo sapiens, TF-1, 72 h; cell count, curve inflection point, 3 days
endpoint-label: pEC50
Worth noting: pEC50 values are minus log10 of concentrations stated in mol/L.

## Input What value of measured pEC50 is listed for C[C@@H]1CC(=O)NN=C1c1ccc(NN=C(C#N)C#N)cc1 ?
## Output 4.38
